target: Proteasome chymotrypsin-like activity (S26 protein from RPMI8226 cells) (Homo sapiens)
Sequence (P28074 60-263 limits assumed): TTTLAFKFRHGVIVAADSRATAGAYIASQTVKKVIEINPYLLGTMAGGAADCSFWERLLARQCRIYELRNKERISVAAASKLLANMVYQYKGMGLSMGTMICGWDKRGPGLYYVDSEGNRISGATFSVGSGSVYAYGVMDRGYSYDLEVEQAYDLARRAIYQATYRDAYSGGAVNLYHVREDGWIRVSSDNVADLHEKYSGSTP
RECORDED_ENDPOINT: IC50

Asked: Fill in the blank: the reported IC50 of CC(C)[C@H](NC(=O)C1(Cc2ccccc2)CC(CNC(=O)c2nccc3ccccc23)=NO1)B(O)O (some centres unmarked) is ____.
Given back: < 10 nM

Asked: Request: CC(C)C[C@H](NC(=O)C1CC(c2ccccc2OC(F)(F)F)=NO1)B(O)O (some centres unmarked)
Given back: < 500 nM

Asked: Request: Cc1cc(C(=O)NCC2=NOC(Cc3ccccc3)(C(=O)N[C@@H](CC(C)C)B(O)O)C2)n(C2CCOCC2)n1 (some centres unmarked)
Given back: < 10 nM

Asked: Request: Cc1cccc(CC2(C(=O)N[C@@H](CC(C)C)B(O)O)CC(CNC(=O)c3cc(C)nn3C(C)C)=NO2)c1 (some centres unmarked)
Given back: < 10 nM

Asked: Request: CC(C)C[C@H](NC(=O)C1(C2(c3ccccc3)CC2)CC(CNC(=O)c2cccn3ccnc23)=NO1)B(O)O (some centres unmarked)
Given back: < 50 nM

Asked: Request: O=C(NCC1=NOC(Cc2ccccc2)(C(=O)N[C@@H](Cc2ccccc2)B(O)O)C1)c1cccc2ncnn12 (some centres unmarked)
Given back: < 10 nM

Asked: Request: CC(C)C[C@H](NC(=O)C1(Cc2ccccc2)CC(COCc2cccc(-c3ccccc3)n2)=NO1)B(O)O (some centres unmarked)
Given back: < 10 nM

Asked: Request: CC(C)C[C@H](NC(=O)C1(Cc2ccccc2)CC([C@H](CC(C)C)NC(=O)c2nccc3ccccc23)=NO1)B(O)O (some centres unmarked)
Given back: < 10 nM

Asked: Request: Cc1cn2cccc(C(=O)NCC3=NOC(Cc4ccccc4)(C(=O)N[C@@H](CC(C)C)B(O)O)C3)c2n1 (some centres unmarked)
Given back: < 10 nM

Asked: Request: CC(C)C[C@H](NC(=O)C1(COC2CCCCC2)CC(CNC(=O)c2nccc3ccccc23)=NO1)B(O)O (some centres unmarked)
Given back: < 10 nM

Asked: Request: O=C(NCC1=NOC(Cc2ccccc2)(C(=O)N[C@@H](Cc2ccccc2)B(O)O)C1)c1cccn2ccnc12 (some centres unmarked)
Given back: < 10 nM

Asked: Request: COc1ccc(C(=O)NCC2=NOC(Cc3ccccc3)(C(=O)N[C@@H](Cc3ccccc3)B(O)O)C2)cc1 (some centres unmarked)
Given back: < 10 nM

Asked: Request: O=C(N[C@@H](Cc1ccccc1)B(O)O)C1(Cc2ccccc2)CC(COc2ccccc2)=NO1 (some centres unmarked)
Given back: < 25 nM

Asked: Request: Cc1cccc(CC2(C(=O)N[C@@H](CC(C)C)B(O)O)CC(CNC(=O)c3cc(-c4ccccn4)nn3C(C)C)=NO2)c1 (some centres unmarked)
Given back: < 10 nM

Asked: Request: CC(C)C[C@H](NC(=O)C1CC(c2ccc(-c3cccc(F)c3)cn2)=NO1)B(O)O (some centres unmarked)
Given back: < 250 nM

Asked: Request: O=C(N[C@@H](Cc1ccccc1)B(O)O)C1(Cc2ccccc2)CC(COCc2cccn3ccnc23)=NO1 (some centres unmarked)
Given back: < 10 nM

Asked: Request: CC(C)C[C@H](NC(=O)C1(Cc2ccccc2)CC(CNC(=O)c2ccc(OC(C)C)c(C#N)c2)=NO1)B(O)O (some centres unmarked)
Given back: < 10 nM

Asked: Request: COc1cccc(CC2(C(=O)N[C@@H](CC(C)C)B(O)O)CC(CNC(=O)c3cc(-c4ccccc4)nn3C(C)C)=NO2)c1 (some centres unmarked)
Given back: < 10 nM

Asked: Request: O=C(NCC1=NOC(Cc2ccccc2)(C(=O)N[C@@H](Cc2ccccc2)B(O)O)C1)c1cccc2nccn12 (some centres unmarked)
Given back: < 10 nM

Asked: Request: CC(C)C[C@H](NC(=O)C1(Cc2ccccc2)CC(CNC(=O)c2cccc(N(C)C)c2)=NO1)B(O)O (some centres unmarked)
Given back: < 10 nM

Asked: Request: O=C(NCC1=NOC(Cc2ccccc2)(C(=O)N[C@@H](Cc2ccccc2)B(O)O)C1)c1cccc(C(F)(F)F)c1 (some centres unmarked)
Given back: < 10 nM

Asked: Request: Cc1cccc(CC2(C(=O)N[C@@H](CC(C)C)B(O)O)CC(CNC(=O)c3ccnn3C(C)C)=NO2)c1 (some centres unmarked)
Given back: < 10 nM

Asked: Request: O=C(NCC1=NOC(Cc2ccccc2)(C(=O)N[C@@H](Cc2ccccc2)B(O)O)C1)c1ccccc1 (some centres unmarked)
Given back: < 10 nM
